- Tested on: CP191
- experimental-protocol: qHTS profiling for inhibitors of Plasmodium falciparum proliferation (AID 504749); also: nearly all actives have a fitted effect of over 60% in size
- measurement-setup: P. falciparum in erythrocytes, SYBR Green DNA, 72 h; series mostly up to 28.7 µM
Inconclusive results are not listed. Active and inactive are the calls of the source. Calls follow the shape of the dose curve; as a rule, active = well fitted inhibition curve with a large enough effect; inconclusive = small, poorly fitted or top-dose-only effect; inactive = flat fitted curve, though single readings scatter.
Labels: active, inactive

| molecule | label-class |
| --- | --- |
| CCCCC/C=C\C/C=C\C/C=C\CCCCC(=O)O | inactive |
| Cc1cc(C(=O)NCCc2ccc(S(=O)(=O)NC(=O)NN3CCCCCC3)cc2)no1 | inactive |
| NC(=S)NS(=O)(=O)c1ccc(N)cc1 | inactive |
| C=Cc1ccc(S(=O)(=O)O)cc1 | inactive |
| O=P(O)(O)OP(=O)(O)OP(=O)(O)O | inactive |
| O=C(O)COc1ccccc1/C=N/NC(=O)c1ccncc1 | inactive |
| F[Si-2](F)(F)(F)(F)F | inactive |
| c1ccc2c(c1)OCC(CN1CCCCC1)O2 (configuration not stated) | inactive |
| CN=C1C=CC(=C(c2ccc(N(C)C)cc2)c2ccc(N(C)C)cc2)C=C1 | active |
| OB(O)O | inactive |
| O=C(O)Cc1cc(I)c(Oc2ccc(O)c(I)c2)c(I)c1 | inactive |
| CCCCC[C@H](O)/C=C/[C@@H]1[C@H]2C/C(=C/CCCC(=O)O)O[C@H]2C[C@H]1O | inactive |
